// data source = ChEMBL document CHEMBL1961873

- assayedTarget: Protein-tyrosine kinase 2-beta (Homo sapiens);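 also: values are the mean percent inhibition of PYK2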
- reportedConditions: at 1 µM
experimentalEndpoint: inhibition (%)
Output spec: scalar in %, unitless text.

-- ask Output inhibition of CN(C)CCOc1ccc(-c2cc(-c3ccc4c(c3)CCC4=NO)c(-c3ccncc3)o2)cc1
-- reply 0.57

-- ask Output inhibition of CN(C)CCCNc1nccc(-c2c(-c3ccc(F)cc3)nn3cc(C(F)(F)F)ccc23)n1
-- reply 1.42

-- ask Output inhibition of C/C(Nc1ccc(S(N)(=O)=O)cc1)=C1/C(=O)Nc2ccccc21
-- reply 17.8

---

- assayedTarget: Protein kinase C theta type (Homo sapiens) (UniProt Q04759);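 also: reported figure is the mean percent inhibition of PKC-theta, from the GSK PKIS screen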
- Sequence (Q04759 whole entry, looked up): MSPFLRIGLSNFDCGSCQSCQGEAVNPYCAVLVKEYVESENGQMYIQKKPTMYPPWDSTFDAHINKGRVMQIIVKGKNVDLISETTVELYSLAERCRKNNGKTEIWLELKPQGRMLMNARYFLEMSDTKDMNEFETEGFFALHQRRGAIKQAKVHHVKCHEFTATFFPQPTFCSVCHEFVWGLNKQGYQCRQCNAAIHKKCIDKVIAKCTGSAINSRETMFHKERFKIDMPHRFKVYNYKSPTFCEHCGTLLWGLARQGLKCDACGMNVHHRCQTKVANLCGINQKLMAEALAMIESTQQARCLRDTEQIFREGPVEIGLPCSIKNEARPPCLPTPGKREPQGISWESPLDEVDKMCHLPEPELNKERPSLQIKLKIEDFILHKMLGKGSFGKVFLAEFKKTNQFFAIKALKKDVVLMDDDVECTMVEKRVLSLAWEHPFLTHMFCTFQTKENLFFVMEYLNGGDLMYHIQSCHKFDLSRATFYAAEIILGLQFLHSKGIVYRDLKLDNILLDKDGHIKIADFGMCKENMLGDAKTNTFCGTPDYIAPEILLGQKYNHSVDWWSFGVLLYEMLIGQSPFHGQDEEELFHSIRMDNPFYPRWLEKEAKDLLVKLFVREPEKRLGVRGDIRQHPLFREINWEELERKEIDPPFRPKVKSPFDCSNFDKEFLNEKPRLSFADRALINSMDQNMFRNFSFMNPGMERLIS
- reportedConditions: at 0.1 µM
Note to self: values exactly at 0.6% are rule met. So inhibition at or above 0.6% is rule met, below is rule not met.

-- ask Please indicate if the recorded inhibition for O=C(Nc1n[nH]c2cc(-c3ccccc3)ccc12)C1CC1 meets or exceeds 0.6%.
-- reply rule met

-- ask Please indicate if the recorded inhibition for COc1cc2ncn(-c3cc(OCc4ccccc4C(F)(F)F)c(C(C)=O)s3)c2cc1OC meets or exceeds 0.6%.
-- reply rule met

-- ask Please indicate if the recorded inhibition for NC(=O)Cc1ccccc1Oc1nccc(-c2c(-c3ccc(F)cc3)ncn2C2CCNCC2)n1 meets or exceeds 0.6%.
-- reply rule not met

-- ask Please indicate if the recorded inhibition for CS(=O)(=O)CCNCc1cc(-c2cc3c(Nc4ccc(OCc5cccc(F)c5)c(Cl)c4)ncnc3s2)cs1 meets or exceeds 0.6%.
-- reply rule met

-- ask Please indicate if the recorded inhibition for COc1cccc(-n2cnc3c(N/N=C/c4ccncc4)ncnc32)c1 meets or exceeds 0.6%.
-- reply rule met

-- ask Please indicate if the recorded inhibition for CCc1cccc(CC)c1/C=C/c1cncc(C(=O)NC)c1 meets or exceeds 0.6%.
-- reply rule met

---

- assayedTarget: Tyrosine-protein kinase JAK2 (Homo sapiens) (UniProt O60674);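 also: mean JAK2 inhibition from the GSK PKIS screen, compounds tested at 1 µM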
- Sequence (O60674 whole entry): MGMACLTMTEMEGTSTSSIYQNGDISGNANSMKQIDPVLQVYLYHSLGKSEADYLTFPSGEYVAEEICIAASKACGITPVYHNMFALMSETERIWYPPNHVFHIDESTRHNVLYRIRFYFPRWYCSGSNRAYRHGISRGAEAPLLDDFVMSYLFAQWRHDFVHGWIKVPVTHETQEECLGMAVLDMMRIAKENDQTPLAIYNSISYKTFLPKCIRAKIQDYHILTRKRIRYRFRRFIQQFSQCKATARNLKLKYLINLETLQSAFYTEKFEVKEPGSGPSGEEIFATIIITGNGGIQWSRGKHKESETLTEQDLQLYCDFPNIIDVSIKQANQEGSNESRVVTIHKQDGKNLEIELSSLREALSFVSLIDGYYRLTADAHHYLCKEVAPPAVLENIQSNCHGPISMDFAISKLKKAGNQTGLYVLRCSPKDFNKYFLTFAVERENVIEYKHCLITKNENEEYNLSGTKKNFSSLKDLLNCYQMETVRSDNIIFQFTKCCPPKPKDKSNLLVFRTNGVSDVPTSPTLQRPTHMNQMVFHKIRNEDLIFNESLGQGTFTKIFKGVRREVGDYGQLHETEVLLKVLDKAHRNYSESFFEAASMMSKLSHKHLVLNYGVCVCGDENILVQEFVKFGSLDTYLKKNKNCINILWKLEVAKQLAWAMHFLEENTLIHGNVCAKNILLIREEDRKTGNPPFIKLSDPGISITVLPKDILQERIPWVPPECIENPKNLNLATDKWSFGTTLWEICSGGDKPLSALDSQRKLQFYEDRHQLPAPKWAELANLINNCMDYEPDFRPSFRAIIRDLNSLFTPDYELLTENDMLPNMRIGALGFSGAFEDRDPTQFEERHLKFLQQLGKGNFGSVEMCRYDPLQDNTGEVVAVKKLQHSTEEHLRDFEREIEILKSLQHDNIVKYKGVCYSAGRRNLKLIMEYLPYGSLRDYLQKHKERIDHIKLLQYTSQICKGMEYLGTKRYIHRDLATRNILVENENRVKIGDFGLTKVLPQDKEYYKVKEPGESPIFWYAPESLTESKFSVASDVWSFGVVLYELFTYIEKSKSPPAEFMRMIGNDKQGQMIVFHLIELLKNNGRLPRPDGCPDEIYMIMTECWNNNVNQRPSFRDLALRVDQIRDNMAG
- reportedConditions: at 1 µM
experimentalEndpoint: inhibition (%)
Output spec: scalar in %, unitless text.

-- ask Output inhibition of FC(F)(F)c1cccc(Nc2nccc(-c3cnn4nc(-c5ccccc5)ccc34)n2)c1
-- reply 0.22

-- ask Output inhibition of Fc1ccc(-c2c(-c3ccncc3)nc3n2CCS3)cc1
-- reply 4.51

-- ask Output inhibition of NS(=O)(=O)c1ccc(Nc2cc(-c3ccc(O)c(F)c3)n[nH]2)cc1
-- reply -0.37

-- ask Output inhibition of NC(=O)c1ccc(Oc2nccc(-c3c(-c4ccc(F)cc4)ncn3C3CCNCC3)n2)cc1
-- reply 3.18

-- ask Output inhibition of O=C1Nc2ccc(I)cc2C1=Cc1cc(Br)c(O)c(Br)c1
-- reply 3

---

Consider the following molecules; for each one, report its inhibition.
- assayedTarget: Ribosomal protein S6 kinase alpha-6 (Homo sapiens) (UniProt Q9UK32);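 also: reported value is the mean inhibition of RSK4, from the GSK PKIS kinase inhibitor screen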
- Sequence (Q9UK32 whole entry): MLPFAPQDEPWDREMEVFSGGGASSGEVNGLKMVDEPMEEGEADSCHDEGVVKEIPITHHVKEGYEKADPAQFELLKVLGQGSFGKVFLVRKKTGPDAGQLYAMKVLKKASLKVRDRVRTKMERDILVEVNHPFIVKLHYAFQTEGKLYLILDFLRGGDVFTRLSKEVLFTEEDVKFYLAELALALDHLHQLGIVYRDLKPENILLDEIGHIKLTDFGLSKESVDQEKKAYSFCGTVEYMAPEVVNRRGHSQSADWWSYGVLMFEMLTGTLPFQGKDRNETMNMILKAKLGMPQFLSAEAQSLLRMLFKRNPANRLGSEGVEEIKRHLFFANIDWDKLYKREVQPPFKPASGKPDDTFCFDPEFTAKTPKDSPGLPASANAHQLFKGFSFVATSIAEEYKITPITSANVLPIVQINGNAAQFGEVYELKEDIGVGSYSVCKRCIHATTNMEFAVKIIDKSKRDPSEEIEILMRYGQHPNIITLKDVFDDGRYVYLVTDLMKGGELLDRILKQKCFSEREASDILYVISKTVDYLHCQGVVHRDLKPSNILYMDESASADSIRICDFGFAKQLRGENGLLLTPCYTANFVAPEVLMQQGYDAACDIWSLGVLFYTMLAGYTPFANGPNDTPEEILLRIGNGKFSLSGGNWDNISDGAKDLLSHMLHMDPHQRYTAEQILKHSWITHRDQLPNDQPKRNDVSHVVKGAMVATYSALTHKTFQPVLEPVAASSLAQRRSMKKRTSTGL
- reportedConditions: at 0.1 µM
Output spec: scalar in %, unitless text.

-- ask Output inhibition of CCN(CC)Cc1ccc(Nc2nccc(-c3cnn4ncccc34)n2)cc1
-- reply 0.43

-- ask Output inhibition of O=C(Nc1n[nH]c2nc(-c3ccco3)ccc12)C1CC1
-- reply 0.59

-- ask Output inhibition of COc1cc2ncn(-c3cc(OCCc4ccccc4)c(C(N)=O)s3)c2cc1OC
-- reply 1.48

-- ask Output inhibition of O=C(NCC1CC1)c1ccc(-c2cccc(C(=O)NC3CC3)c2)cc1
-- reply 0.55

-- ask Output inhibition of O=C(Nc1n[nH]c2cc(-c3ccccc3)ccc12)C1CC1
-- reply 3

-- ask Output inhibition of COc1cc(Nc2ncc3c(C)nc(-c4cccc(Oc5ccccc5)c4)n3n2)cc(OC)c1OC
-- reply 2.59

-- ask Output inhibition of COc1cc2ncn(-c3cc(OCc4cccs4)c(C(N)=O)s3)c2cc1OC
-- reply 1.53

-- ask Output inhibition of Clc1ccc(CNc2nccc(-c3cnn4ncccc34)n2)cc1
-- reply 2.62

-- ask Output inhibition of O=C1Nc2ccccc2/C1=C/Nc1ccc(-n2cncn2)cc1
-- reply 3.31

-- ask Output inhibition of Fc1ccc(-c2c(-c3ccncc3)nc3n2CCS3)cc1
-- reply 1.3

-- ask Output inhibition of Cc1ccc(C(=O)NC2CCC2)cc1-c1ccc(C(=O)NCC2CC2)cc1
-- reply 1.63

-- ask Output inhibition of Nc1nccc(-c2c(-c3ccc(F)cc3)ncn2C2CCC(O)CC2)n1 (configuration not stated)
-- reply -0.21

-- ask Output inhibition of CS(=O)(=O)CCNCc1ccc(-c2ccc3ncnc(Nc4ccc(OCc5ccccc5)c(Br)c4)c3c2)o1
-- reply -0.12

-- ask Output inhibition of O=C(Nc1n[nH]c2nc(-c3ccc(O)cc3)c(Br)cc12)C1CC1
-- reply 16.4

-- ask Output inhibition of Cc1ccc(C(=O)NC(C)C)cc1-c1ccc(C(=O)NCC2CC2)cc1
-- reply -0.44

-- ask Output inhibition of COc1ccc2cc(-c3c(-c4ccncc4)nc(-c4ccc([S+](C)[O-])cc4C)n3C)ccc2c1 (configuration not stated)
-- reply -0.13

-- ask Output inhibition of C/C(Nc1ccc(S(N)(=O)=O)cc1)=C1/C(=O)Nc2ccccc21
-- reply 2.94

---

- assayedTarget: Rho-associated protein kinase 1 (Homo sapiens) (UniProt Q13464);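 also: reported values are mean percent inhibition of ROCK1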
- Sequence (Q13464 2-1354 limits assumed): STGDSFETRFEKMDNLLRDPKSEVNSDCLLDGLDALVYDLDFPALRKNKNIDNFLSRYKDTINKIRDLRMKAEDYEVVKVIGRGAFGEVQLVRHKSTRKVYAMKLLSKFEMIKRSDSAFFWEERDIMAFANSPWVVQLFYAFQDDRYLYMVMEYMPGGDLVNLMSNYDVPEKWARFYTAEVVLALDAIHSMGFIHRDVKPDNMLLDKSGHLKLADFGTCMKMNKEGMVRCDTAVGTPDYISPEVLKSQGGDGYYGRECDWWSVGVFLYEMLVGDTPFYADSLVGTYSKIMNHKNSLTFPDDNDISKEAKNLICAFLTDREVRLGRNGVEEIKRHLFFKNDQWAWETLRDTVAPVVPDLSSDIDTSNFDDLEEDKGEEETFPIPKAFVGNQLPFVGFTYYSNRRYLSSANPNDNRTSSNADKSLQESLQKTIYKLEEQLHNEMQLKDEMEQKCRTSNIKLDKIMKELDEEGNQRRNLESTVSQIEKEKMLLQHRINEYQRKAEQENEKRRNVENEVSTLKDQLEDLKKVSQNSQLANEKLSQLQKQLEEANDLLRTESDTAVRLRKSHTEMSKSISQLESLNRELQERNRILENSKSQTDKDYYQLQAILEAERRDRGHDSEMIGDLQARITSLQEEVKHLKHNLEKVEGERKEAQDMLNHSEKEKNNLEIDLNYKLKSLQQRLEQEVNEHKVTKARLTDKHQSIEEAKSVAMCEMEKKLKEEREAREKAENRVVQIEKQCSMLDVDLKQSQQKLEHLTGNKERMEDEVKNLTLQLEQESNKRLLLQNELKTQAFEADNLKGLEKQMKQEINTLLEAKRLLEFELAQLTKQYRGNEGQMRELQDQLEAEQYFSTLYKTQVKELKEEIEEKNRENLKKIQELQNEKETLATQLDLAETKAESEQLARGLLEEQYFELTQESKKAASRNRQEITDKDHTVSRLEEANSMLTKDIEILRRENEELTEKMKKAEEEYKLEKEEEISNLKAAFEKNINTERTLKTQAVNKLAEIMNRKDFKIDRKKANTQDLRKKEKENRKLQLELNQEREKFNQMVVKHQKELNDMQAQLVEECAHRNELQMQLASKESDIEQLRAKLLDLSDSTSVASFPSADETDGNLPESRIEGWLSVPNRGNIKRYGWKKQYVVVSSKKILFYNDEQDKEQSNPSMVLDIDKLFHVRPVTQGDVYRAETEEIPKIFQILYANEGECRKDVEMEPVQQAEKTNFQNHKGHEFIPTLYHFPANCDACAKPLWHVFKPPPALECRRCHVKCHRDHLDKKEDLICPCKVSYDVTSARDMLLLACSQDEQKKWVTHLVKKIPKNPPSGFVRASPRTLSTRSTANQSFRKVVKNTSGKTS
- reportedConditions: at 1 µM
experimentalEndpoint: inhibition (%)
Output spec: scalar in %, unitless text.

-- ask Find inhibition for C[C@@H](Oc1cc(-n2cnc3ccc(OCC4CCN(C)CC4)cc32)sc1C(N)=O)c1ccccc1Cl on Rho-associated protein kinase 1 (Homo sapiens) (UniProt Q13464) and write it down.
-- reply 7.23

-- ask Find inhibition for O=C(Nc1ccc(Oc2ccc3[nH]c(NC(=O)c4ccccc4)nc3c2)cc1)Nc1cc(C(F)(F)F)ccc1F on Rho-associated protein kinase 1 (Homo sapiens) (UniProt Q13464) and write it down.
-- reply 6.36

-- ask Find inhibition for O=C(Nc1n[nH]c2nc(-c3ccco3)ccc12)C1CC1 on Rho-associated protein kinase 1 (Homo sapiens) (UniProt Q13464) and write it down.
-- reply 3.74

-- ask Find inhibition for COc1ccc(-c2ccc3c(NC(=O)C4CC4)n[nH]c3n2)cc1 on Rho-associated protein kinase 1 (Homo sapiens) (UniProt Q13464) and write it down.
-- reply -0.75

-- ask Find inhibition for NC(=O)Cc1ccccc1Oc1nccc(-c2c(-c3ccc(F)cc3)ncn2C2CCNCC2)n1 on Rho-associated protein kinase 1 (Homo sapiens) (UniProt Q13464) and write it down.
-- reply 1.73

-- ask Find inhibition for c1ccc(-c2n[nH]cc2-c2ccnc(-c3ccc(OCCN4CCOCC4)cc3)c2)nc1 on Rho-associated protein kinase 1 (Homo sapiens) (UniProt Q13464) and write it down.
-- reply 2.14

-- ask Find inhibition for COc1cc(Nc2ncc3c(C)nc(-c4cccc(C(F)(F)F)c4)n3n2)cc(OC)c1OC on Rho-associated protein kinase 1 (Homo sapiens) (UniProt Q13464) and write it down.
-- reply 2.39

-- ask Find inhibition for Fc1ccc(-c2c(-c3ccncc3)nc3n2CCS3)cc1 on Rho-associated protein kinase 1 (Homo sapiens) (UniProt Q13464) and write it down.
-- reply 13.8

-- ask Find inhibition for O=C(Nc1n[nH]c2cc(-c3cc(F)ccc3F)ccc12)C1CC1 on Rho-associated protein kinase 1 (Homo sapiens) (UniProt Q13464) and write it down.
-- reply 2.49

-- ask Find inhibition for CCc1ccc(Oc2nccc(-c3c(-c4ccc(F)cc4)ncn3C3CCNCC3)n2)cc1 on Rho-associated protein kinase 1 (Homo sapiens) (UniProt Q13464) and write it down.
-- reply 3.4

---

- assayedTarget: 5'-AMP-activated protein kinase catalytic subunit alpha-1 (Homo sapiens);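 also: enzyme tested as the AMPK alpha1 beta1 gamma1 complex, values reported as mean percent inhibition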
- reportedConditions: at 0.1 µM
- Description: GSK_PKIS: AMPKA1 (A1B1G1) mean inhibition at 0.1 uM [Nanosyn]
experimentalEndpoint: inhibition
Mention the unit after the number when you answer.

-- ask Output inhibition of Cc1nnc(-c2ccc(C)c(-c3ccc(C(=O)NCc4ccc(Cl)cc4)cc3)c2)o1
-- reply 2.95%

-- ask Output inhibition of FC(F)(F)c1cccc(Nc2nccc(-c3cnn4nc(-c5ccccc5)ccc34)n2)c1
-- reply 1.9%

-- ask Output inhibition of CCS(=O)(=O)c1ccc(OC)c(Nc2ncc(-c3cccc(-c4ccccc4F)c3)o2)c1
-- reply 0.4%

-- ask Output inhibition of Fc1ccc(-c2nc3n(c2-c2ccncc2)CCS3)cc1
-- reply 2.91%

-- ask Output inhibition of CCC(=O)Nc1ccc(C)c(-c2ccc(C(=O)NCC3CC3)cc2)c1
-- reply 1.31%

-- ask Output inhibition of CCc1nccc2c1nc(-c1nonc1N)n2CC
-- reply 1%

-- ask Output inhibition of CCc1cccc(CC)c1/C=C/c1cncc(C(=O)NC)c1
-- reply 1.05%

-- ask Output inhibition of COc1ccc(-c2ccc3c(NC(=O)C4CC4)n[nH]c3n2)cc1
-- reply 1.15%

-- ask Output inhibition of O=C(Nc1n[nH]c2cc(-c3cc(F)ccc3F)ccc12)C1CC1
-- reply 2.72%

-- ask Output inhibition of N#Cc1ccc(Oc2nccc(-c3c(-c4ccc(F)cc4)ncn3C3CCNCC3)n2)cc1
-- reply 2.27%

-- ask Output inhibition of COc1cc2ncn(-c3cc(OCc4ccccc4C(F)(F)F)c(C(C)=O)s3)c2cc1OC
-- reply 1.8%

-- ask Output inhibition of NCc1ccc(-n2c(-c3nonc3N)nc3cnccc32)cc1
-- reply 5.3%

-- ask Output inhibition of Fc1ccc(-c2c(-c3ccncc3)nc3n2CCS3)cc1
-- reply 3.33%
